Give measured IC50 for each item. Keep answers brief.
target: Human NaV1.7 (Homo sapiens, UniProt Q15858); test: Ionworks Barracuda (IWB) automated patch clamp assay; conditions: human NaV1.7 in HEK cells, population patch-clamp, state- and use-dependent voltage protocol; read-out: hNaV1.7 IWB-U IC50
Sequence (Q15858 whole entry): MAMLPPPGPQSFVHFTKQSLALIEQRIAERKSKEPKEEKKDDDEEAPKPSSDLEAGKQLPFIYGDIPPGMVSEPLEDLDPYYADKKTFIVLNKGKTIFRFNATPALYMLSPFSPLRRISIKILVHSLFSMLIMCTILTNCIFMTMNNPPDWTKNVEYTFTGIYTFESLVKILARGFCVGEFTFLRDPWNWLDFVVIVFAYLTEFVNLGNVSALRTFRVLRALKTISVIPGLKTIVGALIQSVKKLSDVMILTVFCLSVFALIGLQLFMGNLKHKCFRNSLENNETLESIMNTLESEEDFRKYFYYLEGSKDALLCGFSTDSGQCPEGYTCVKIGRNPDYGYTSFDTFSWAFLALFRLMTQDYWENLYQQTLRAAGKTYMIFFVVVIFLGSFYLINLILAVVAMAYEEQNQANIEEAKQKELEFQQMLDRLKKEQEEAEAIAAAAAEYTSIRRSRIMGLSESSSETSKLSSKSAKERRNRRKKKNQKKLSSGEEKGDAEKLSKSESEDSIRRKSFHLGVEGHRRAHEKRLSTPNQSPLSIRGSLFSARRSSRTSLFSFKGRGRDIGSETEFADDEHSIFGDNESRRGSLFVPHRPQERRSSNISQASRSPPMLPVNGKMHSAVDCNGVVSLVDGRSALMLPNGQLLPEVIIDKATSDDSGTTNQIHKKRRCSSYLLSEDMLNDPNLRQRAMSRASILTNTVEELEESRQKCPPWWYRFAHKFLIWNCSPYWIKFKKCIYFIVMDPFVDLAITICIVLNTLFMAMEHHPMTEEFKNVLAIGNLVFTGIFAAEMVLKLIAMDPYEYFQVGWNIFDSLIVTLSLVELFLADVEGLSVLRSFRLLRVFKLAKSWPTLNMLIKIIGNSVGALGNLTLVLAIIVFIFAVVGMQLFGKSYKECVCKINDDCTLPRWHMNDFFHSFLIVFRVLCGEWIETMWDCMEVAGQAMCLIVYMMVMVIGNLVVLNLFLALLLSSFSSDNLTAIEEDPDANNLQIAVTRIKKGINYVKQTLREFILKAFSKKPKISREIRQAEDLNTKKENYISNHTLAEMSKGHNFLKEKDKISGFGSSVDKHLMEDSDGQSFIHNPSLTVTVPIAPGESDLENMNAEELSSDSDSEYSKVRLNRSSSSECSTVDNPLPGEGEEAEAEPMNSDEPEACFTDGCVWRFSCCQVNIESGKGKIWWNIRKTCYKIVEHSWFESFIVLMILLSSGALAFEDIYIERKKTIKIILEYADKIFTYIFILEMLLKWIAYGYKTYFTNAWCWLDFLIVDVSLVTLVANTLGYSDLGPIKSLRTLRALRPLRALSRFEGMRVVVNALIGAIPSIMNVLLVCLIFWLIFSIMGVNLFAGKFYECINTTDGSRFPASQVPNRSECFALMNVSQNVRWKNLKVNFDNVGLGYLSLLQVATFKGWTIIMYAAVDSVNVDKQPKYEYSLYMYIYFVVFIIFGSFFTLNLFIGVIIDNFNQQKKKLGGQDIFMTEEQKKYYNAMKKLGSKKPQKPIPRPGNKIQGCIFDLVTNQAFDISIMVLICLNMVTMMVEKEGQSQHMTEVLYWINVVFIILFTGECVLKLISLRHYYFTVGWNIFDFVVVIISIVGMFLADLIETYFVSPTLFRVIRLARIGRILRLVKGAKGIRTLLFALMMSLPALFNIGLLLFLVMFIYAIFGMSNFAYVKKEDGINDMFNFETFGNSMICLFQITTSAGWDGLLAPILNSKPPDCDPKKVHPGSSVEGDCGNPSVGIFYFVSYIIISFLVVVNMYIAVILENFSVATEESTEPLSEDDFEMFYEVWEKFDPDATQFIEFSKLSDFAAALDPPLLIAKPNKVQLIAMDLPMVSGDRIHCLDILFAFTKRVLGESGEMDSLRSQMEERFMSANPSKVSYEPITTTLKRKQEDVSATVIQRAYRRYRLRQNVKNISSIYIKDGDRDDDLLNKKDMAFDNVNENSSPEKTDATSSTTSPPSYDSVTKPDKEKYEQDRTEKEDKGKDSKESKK
Provide the reading as a plain figure in nM.

Please give the documented IC50 of COc1cc([C@H]2C[C@@H]2C(F)(F)F)c(Cl)cc1-n1c(=O)ccc2cc(S(=O)(=O)Nc3ccon3)ccc21 (atropisomer, axis not shown; (P)) [Example 19] 6

# return recorded IC50 for entry COc1cc([C@H]2C[C@@H]2C(F)(F)F)ccc1-n1c(=O)ccc2cc(S(=O)(=O)Nc3ccon3)ccc21 (single isomer, unassigned) [Example 39] 8

Output IC50 of COc1cc([C@H]2C[C@@H]2C(F)(F)F)ccc1-n1c(=O)ccc2cc(S(=O)(=O)Nc3ccon3)c(F)cc21 (atropisomer, axis not shown; (P)) [Example 48] 11

Name the recorded IC50 of the compound listed here: COc1cc([C@H]2C[C@@H]2C(F)(F)F)c(C#N)cc1-n1c(=O)ccc2cc(S(=O)(=O)Nc3ccon3)ccc21 (atropisomer, axis not shown; (P)) [Example 37] 7

Tell us which IC50 value is on record for COc1cc([C@@H]2C[C@H]2c2ccccc2)c(F)cc1-n1c(=O)ccc2cc(S(=O)(=O)Nc3ccon3)ccc21 (atropisomer, axis not shown; (P)) [Example 8] 8

State its IC50 for this compound: COc1cc([C@H]2C[C@@H]2C(F)(F)F)c(Cl)cc1-n1c(=O)ccc2cc(S(=O)(=O)Nc3cccnn3)ccc21 (single isomer, unassigned) [Example 15] 14
